targetDesc: human GLP-1 receptor (hGLP-1R) (Homo sapiens, UniProt P43220)
Construct: expressed in transfected cells
Sequence (P43220 24-463): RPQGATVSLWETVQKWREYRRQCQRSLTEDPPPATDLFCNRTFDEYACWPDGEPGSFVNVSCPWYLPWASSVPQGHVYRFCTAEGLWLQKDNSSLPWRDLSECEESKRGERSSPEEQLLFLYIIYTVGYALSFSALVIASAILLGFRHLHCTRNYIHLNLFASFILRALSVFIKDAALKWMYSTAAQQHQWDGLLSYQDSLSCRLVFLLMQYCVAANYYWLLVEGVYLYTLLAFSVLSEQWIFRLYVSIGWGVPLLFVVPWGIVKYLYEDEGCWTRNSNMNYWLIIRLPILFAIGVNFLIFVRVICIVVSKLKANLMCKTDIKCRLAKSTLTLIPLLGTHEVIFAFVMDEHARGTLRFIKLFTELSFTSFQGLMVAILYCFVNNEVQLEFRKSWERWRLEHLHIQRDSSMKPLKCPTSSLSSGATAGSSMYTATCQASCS
methodDescription: GLP-1 receptor assay, method A (CRE-luciferase reporter, BHK cells)
Format: cell-based
measurementParameters: hGLP-1R Potency, 1% HSA, EC50, method A, in the presence of 1% HSA
pEC50: −log10 of the molar value. Numbered stars: 1 amine (or outer) side, 2 acyl side, 3 side chain; on linkers, the order of the positions; unused ones are H or OH. Square brackets hold non-standard residues; d marks the D form. Side chains are listed from the residue outwards. * marks the point of attachment. C18 diacid = O=C(O)CCCCCCCCCCCCCCCCC(=O)*; C16 diacid = O=C(O)CCCCCCCCCCCCCCC(=O)*; γGlu = O=C(O)[C@H](CCC(=O)[*:2])N[*:1]; AEEA = NCCOCCOCC(=O)O; Aib = CC(C)(N)C(=O)O
The threshold is inclusive: pEC50 of exactly 10 counts as 1; values below receive 0.

The examples below pair each entry with its known result.
H[Aib]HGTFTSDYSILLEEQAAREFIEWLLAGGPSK([AEEA-AEEA-γGlu-C18 diacid])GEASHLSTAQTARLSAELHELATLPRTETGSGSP-NH2 [Compound 36] : 0
H[Aib]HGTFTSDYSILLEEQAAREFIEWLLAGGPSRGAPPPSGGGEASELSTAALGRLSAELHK([AEEA-AEEA-γGlu-C18 diacid])LATLPRTETGSGSP-NH2 [Compound 70] : 1
Y[Aib]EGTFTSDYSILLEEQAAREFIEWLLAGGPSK([AEEA-AEEA-γGlu-C18 diacid])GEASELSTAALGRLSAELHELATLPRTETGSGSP-NH2 [Compound 26] : 0
H[Aib]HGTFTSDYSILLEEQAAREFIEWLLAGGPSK([AEEA-AEEA-γGlu-C16 diacid])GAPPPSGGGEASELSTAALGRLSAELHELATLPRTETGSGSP-NH2 [Compound 12] : 1
H[Aib]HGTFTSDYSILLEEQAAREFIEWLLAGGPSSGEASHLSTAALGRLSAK([AEEA-AEEA-γGlu-C18 diacid])LHRLATLPRTETGSGSP-NH2 [Compound 87] : 1

[in] Could you please find out whether Y[Aib]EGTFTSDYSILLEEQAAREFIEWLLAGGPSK([AEEA-AEEA-γGlu-C18 diacid])GGQEPGQEPGEASHLSTAQTQRLSAELHELATLPRTETGSGSP-NH2 [Compound 39] has pEC50 that meets 10 or exceeds it?
[out] 0

[in] Could you please find out whether H[Aib]HGTFTSDYSILLEEQAAREFIEWLLAGGPSSGEASHLSTAQTQRLSAK([AEEA-AEEA-γGlu-C18 diacid])LHRLATLPRTETGSGSP-NH2 [Compound 82] has pEC50 that meets 10 or exceeds it?
[out] 1

[in] Could you please find out whether Y[Aib]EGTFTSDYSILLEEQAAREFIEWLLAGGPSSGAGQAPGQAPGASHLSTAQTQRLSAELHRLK([AEEA-AEEA-AEEA-γGlu-C18 diacid])TLPRTETGSGSP-NH2 [Compound 111] has pEC50 that meets 10 or exceeds it?
[out] 1

[in] Could you please find out whether H[Aib]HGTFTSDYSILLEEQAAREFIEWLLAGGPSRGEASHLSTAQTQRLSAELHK([AEEA-AEEA-γGlu-C18 diacid])LATLPRTETGSGSP-NH2 [Compound 69] has pEC50 that meets 10 or exceeds it?
[out] 1

[in] Could you please find out whether H[Aib]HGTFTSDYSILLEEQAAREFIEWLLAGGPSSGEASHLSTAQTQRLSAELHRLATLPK([AEEA-AEEA-γGlu-C18 diacid])TETGSGSP-NH2 [Compound 84] has pEC50 that meets 10 or exceeds it?
[out] 1

[in] Could you please find out whether H[Aib]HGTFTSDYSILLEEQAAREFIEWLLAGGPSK([AEEA-AEEA-γGlu-C16 diacid])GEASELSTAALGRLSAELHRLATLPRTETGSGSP-NH2 [Compound 17] has pEC50 that meets 10 or exceeds it?
[out] 1

[in] Could you please find out whether Y[Aib]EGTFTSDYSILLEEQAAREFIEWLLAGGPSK([AEEA-AEEA-γGlu-C16 diacid])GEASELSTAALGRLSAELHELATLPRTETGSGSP-NH2 [Compound 11] has pEC50 that meets 10 or exceeds it?
[out] 0

[in] Could you please find out whether H[Aib]HGTFTSDYSILLEEQAAREFIEWLLAGGPSGGEASHLSTAQTQRLSAELHK([AEEA-AEEA-γGlu-C18 diacid])LATLPRTETGSGSP-NH2 [Compound 75] has pEC50 that meets 10 or exceeds it?
[out] 1
